Consider the following molecules and their measured remaining at 0.5 h, 1 µM readings.
- ASSAY OVERVIEW: Metabolic stability in mouse liver microsomes assessed as compound remaining at 1 uM after 30 mins by LC-ESI/MS/MS analysis in absence of NADPH
- Format: ADME
- CONDITION INFO: read-out: Stability
Give your result in % as a bare value.

Reference set, count: 4
| MOLECULE SMILES | MEASUREMENT UNIT | RECORDED NUMBER |
| --- | --- | --- |
| O=C(/C=C/c1cccn(Cc2ccc3ccccc3n2)c1=O)NO | % | 100 |
| COc1cccc(CCCn2cccc(/C=C/C(=O)NO)c2=O)c1 | % | 110 |
| O=C1CC2(CCCC2)CC(=O)N1CCCCN1CCN(c2ncccn2)CC1 | % | 101 |
| CCOc1ccccc1CCCn1cccc(/C=C/C(=O)NO)c1=O | % | 104 |

Q. // returns reported remaining at 0.5 h, 1 µM for input "O=C(/C=C/c1cccn(CCCc2cccc(Br)c2)c1=O)NO"
A. 96.7

Q. Give its remaining at 0.5 h, 1 µM value. Item: "CCOc1ccc(CCn2cccc(/C=C/C(=O)NO)c2=O)cc1"
A. 105

Q. What does the data say about its remaining at 0.5 h, 1 µM? Entry: "CC(C)(C)c1ccc(CCn2cccc(/C=C/C(=O)NO)c2=O)cc1"
A. 103

Q. // query remaining at 0.5 h, 1 µM value for entry "CCc1ccc(CCn2cccc(/C=C/C(=O)NO)c2=O)cc1"
A. 96.5

Q. remaining at 0.5 h, 1 µM for "COc1cccc(Cn2cccc(/C=C/C(=O)NO)c2=O)c1" ?
A. 98.6
